- study-target: human CTLA-4 (human) (UniProt P16410)
- Sequence (P16410 36-223): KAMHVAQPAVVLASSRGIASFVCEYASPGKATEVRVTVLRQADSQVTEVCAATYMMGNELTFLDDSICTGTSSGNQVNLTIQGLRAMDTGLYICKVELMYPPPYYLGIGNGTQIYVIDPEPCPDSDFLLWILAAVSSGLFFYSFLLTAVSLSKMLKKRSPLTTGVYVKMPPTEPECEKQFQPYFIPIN
- assay-comment: flow cytometry, CHO cells stably expressing CTLA4
value-type: MFI at 33.3 nM (MFI)

Would you please look over these solved cases?
binder	unit-name	MFI at 33.3 nM
CD80 E35D/M47V/N48K/V68M/K89N IgV-Fc, EAAAK linker (Fc fusion) VIHVTKEVKEVATLSCGHNVSVEELAQTRIYWQKDKKMVLTMMSGDVKIWPEYKNRTIFDITNNLSIMILALRPSDEGTYECVVLKYENDAFKREHLAEVTLSVKADEAAAK	MFI	27500
variant CD80 IgV-Fc H18Y/A26E/E35D/M47L (Fc fusion) VIHVTKEVKEVATLSCGYNVSVEELEQTRIYWQKDKKMVLTMMSGDLNIWPEYKNRTIFDITNNLSIVILALRPSDEGTYECVVLKYEKDAFKREHLAEVTLSVKAD	MFI	24000
variant CD80 IgV-Fc (inert) H18Y/E35D/M47V/V68M/A71G (Fc fusion) VIHVTKEVKEVATLSCGYNVSVEELAQTRIYWQKDKKMVLTMMSGDVNIWPEYKNRTIFDITNNLSIMILGLRPSDEGTYECVVLKYEKDAFKREHLAEVTLSVKAD	MFI	23600

[1] variant CD80 IgV-Fc (inert) H18Y/A26P/E35D/M47I/V68M/A71G (Fc fusion) VIHVTKEVKEVATLSCGYNVSVEELPQTRIYWQKDKKMVLTMMSGDINIWPEYKNRTIFDITNNLSIMILGLRPSDEGTYECVVLKYEKDAFKREHLAEVTLSVKAD
[2] variant CD80 IgV-Fc H18Y/V68M/A71G/D90G (Fc fusion) VIHVTKEVKEVATLSCGYNVSVEELAQTRIYWQKEKKMVLTMMSGDMNIWPEYKNRTIFDITNNLSIMILGLRPSDEGTYECVVLKYEKGAFKREHLAEVTLSVKAD
Qu. Look at 1 and 2 . Which one has the lower recorded MFI at 33.3 nM number? Indicate which entry you chose by stating its label.
Ans. 1

[1] variant CD80 IgV-Fc A26E/E35D/M47L/D90G (Fc fusion) VIHVTKEVKEVATLSCGHNVSVEELEQTRIYWQKDKKMVLTMMSGDLNIWPEYKNRTIFDITNNLSIVILALRPSDEGTYECVVLKYEKGAFKREHLAEVTLSVKAD
[2] CD80 IgV-Fc E35D/D46E/M47L/V68M/L85Q/F92L (Fc fusion) VIHVTKEVKEVATLSCGHNVSVEELAQTRIYWQKDKKMVLTMMSGELNIWPEYKNRTIFDITNNLSIMILALRPSDEGTYECVVQKYEKDALKREHLAEVTLSVKAD
Qu. Recorded MFI at 33.3 nM values differ for 1 and 2 ; which one is higher? Indicate which entry you chose by stating its label.
Ans. 1
